biological target: Phosphodiesterase 4 (Homo sapiens, UniProt P27815+Q08499+Q07343+Q08493); type: functional, cell-based; conditions: u-937
Description: Inhibition of PDE4 activity in U937 cells
// reported IC50 for each item listed
# output: bare number, implied unit µM

compound.structure	quantitative.result
Cc1c(NC2CC2)nc(C2CC2)nc1N1CCOCC1	0.79
Nc1c(NC2CC2)nc(C2CC2)nc1N1CCCCCC1	0.79
Cc1c(NC2CC2)nc(C(C)C)nc1N1CCCCCC1	2.5
Cc1c(NC2CC2)nc(C2CC2)nc1N1CCC(=O)CC1	3.2
c1c(NC2CC2)nc(C2CC2)nc1N1CCCCCC1	0.4
Cc1c(NC2CC2)nc(C2CCC2)nc1N1CCCCCC1	2

Field IC50 (entry Cc1c(NC2CC2)nc(C2CC2)nc1N1CCC(C)CC1 ) reads 0.63

Field IC50 (entry Fc1c(NC2CC2)nc(C2CC2)nc1N1CCCCCC1 ) reads 0.63

Field IC50 (entry Brc1c(NC2CC2)nc(C2CC2)nc1N1CCCCCC1 ) reads 0.63

Field IC50 (entry Cc1c(NCc2cccs2)nc(C2CC2)nc1NC1CC1 ) reads 6.3

Field IC50 (entry Cc1c(N[C@H]2C[C@@H]2C)nc(C2CC2)nc1N1CCCCCC1 ) reads 7.9

Field IC50 (entry Cc1c(NC2CC2)nc(C2CC2)nc1N(C)Cc1ccccc1 ) reads 0.4

Field IC50 (entry Cc1c(NC2CC2)nc(C2CCCC2)nc1N1CCCCCC1 ) reads 1.26

Field IC50 (entry O=[N+]([O-])c1c(NC2CC2)nc(C2CC2)nc1N1CCCCCC1 ) reads 1.26

Field IC50 (entry C1CCCN(c2nc(C3CC3)nc3c2CCCN3)CC1 ) reads 0.5

Field IC50 (entry Cc1c(NC2CC2)nc(C2CC2)nc1N1CCC2(CCCC2)CC1 ) reads 0.79

Field IC50 (entry Cc1c(NC2CCC2)nc(C2CC2)nc1N1CCCCCC1 ) reads 2

Field IC50 (entry Cc1c(NC2CC2)nc(CC2CC2)nc1N1CCCCCC1 ) reads 2

Field IC50 (entry Cc1c(NC2CC2)nc([C@@H]2C[C@H]2C)nc1N1CCCCCC1 ) reads 3.2

Field IC50 (entry Cc1c(NC2CC2)nc(C2CC2)nc1N1CCCC1 ) reads 1.6

Field IC50 (entry CCc1c(NC2CC2)nc(C2CC2)nc1N1CCSCC1 ) reads 1.6
